# testTarget: T1, topo VI KGRR-AAA (Methanosarcina mazei, UniProt Q8PUB7;Q8PUB8 1-369;1-621, K186A;R188A;R189A)
# T1 sequence 1: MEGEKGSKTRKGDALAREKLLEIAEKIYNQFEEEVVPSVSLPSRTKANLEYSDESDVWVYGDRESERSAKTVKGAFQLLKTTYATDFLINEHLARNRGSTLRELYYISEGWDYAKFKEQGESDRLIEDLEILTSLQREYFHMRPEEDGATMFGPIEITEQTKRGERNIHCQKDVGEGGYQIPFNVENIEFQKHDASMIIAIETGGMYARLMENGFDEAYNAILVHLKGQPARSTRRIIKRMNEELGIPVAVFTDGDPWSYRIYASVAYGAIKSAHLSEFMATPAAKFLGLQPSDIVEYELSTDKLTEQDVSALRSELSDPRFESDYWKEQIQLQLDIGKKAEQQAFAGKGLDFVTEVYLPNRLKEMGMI
# T1 sequence 2: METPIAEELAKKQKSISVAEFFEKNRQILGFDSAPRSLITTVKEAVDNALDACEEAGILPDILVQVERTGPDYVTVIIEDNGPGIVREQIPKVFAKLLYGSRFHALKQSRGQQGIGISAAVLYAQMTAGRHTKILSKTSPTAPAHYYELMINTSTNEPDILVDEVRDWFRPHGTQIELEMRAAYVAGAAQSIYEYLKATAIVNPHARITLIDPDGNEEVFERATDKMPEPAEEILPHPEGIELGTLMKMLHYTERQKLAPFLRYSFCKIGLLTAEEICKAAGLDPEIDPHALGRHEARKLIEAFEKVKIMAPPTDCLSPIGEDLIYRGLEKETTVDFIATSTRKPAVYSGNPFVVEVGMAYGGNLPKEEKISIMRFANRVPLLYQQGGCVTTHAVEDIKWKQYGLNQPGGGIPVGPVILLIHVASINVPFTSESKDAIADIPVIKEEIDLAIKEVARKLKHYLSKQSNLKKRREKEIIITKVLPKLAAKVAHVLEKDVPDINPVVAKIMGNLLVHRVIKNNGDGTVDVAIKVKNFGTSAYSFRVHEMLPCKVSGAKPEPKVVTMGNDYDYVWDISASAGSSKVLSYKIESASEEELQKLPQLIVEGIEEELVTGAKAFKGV
# testName: fluorescence anisotropy; Fluorescence anisotropy, 20 nM FAM-labelled DNA, topo VI 0 and 3.9-4000 nM, no nucleotide; buffer, salt, pH and temperature not given in supplied text
# testConditions: protein: recombinant; tags: N-terminal His6-TEV on Top6B, removed; chain copies: 2;2; label: 5'-FAM strand 1; blunt
Mark each entry YES if its Kd sits below 100 nM, and NO for all others.

binder	className
70 bp duplex (dsDNA) DNA 1: CCAAATGCTTCAATAATATTGAAAAAGGAAGAGTATGAGTATTCAACATTTCCGTGTCGCCCTTATTCCC DNA 2: GGGAATAAGGGCGACACGGAAATGTTGAATACTCATACTCTTCCTTTTTCAATATTATTGAAGCATTTGG	NO
20 bp duplex (dsDNA) DNA 1: CGGAAGAGTATGAGTATTCG DNA 2: CGAATACTCATACTCTTCCG	NO
40 bp duplex (dsDNA) DNA 1: CTATTGAAAAAGGAAGAGTATGAGTATTCAACATTTCCGC DNA 2: GCGGAAATGTTGAATACTCATACTCTTCCTTTTTCAATAG	YES

# ---- query binder ----
hey, is Kd for 30 bp duplex (dsDNA) DNA 1: CAAAAAGGAAGAGTATGAGTATTCAACATC DNA 2: GATGTTGAATACTCATACTCTTCCTTTTTG lower than 100 nM or not?
YES
